These data points were gathered from patent US20220033501A1.

Each item that follows carries a reported IFN-γ production, lymphocyte activation assay (donor Y), antibody 1 µg/ml, N = 2.
Target: T1, human TIM-3 protein on human PBMC (human, UniProt Q8TDQ0 22-301)
T1 sequence: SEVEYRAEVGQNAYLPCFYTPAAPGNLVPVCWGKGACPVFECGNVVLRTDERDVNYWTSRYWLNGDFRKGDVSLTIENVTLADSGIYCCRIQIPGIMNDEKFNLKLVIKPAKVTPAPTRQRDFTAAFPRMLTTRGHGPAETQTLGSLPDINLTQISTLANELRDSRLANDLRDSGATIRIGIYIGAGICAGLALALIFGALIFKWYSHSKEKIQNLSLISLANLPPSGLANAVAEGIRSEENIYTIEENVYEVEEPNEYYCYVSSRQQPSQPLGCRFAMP
Test: cell-based or functional assay
MEASURED PARAMETER: IFN-γ production, lymphocyte activation assay (donor Y), antibody 1 µg/ml, N = 2 (pg/mL)

# BINDER, UNIT STRING, VALUE
records = [
    ("fully human TIM-3 antibody 34B6D8 (antibody, human IgG4, V domains shown, also called antibody number 5) VH: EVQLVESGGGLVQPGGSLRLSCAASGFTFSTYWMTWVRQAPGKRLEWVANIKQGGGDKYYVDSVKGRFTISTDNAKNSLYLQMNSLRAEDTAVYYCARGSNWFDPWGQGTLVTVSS VL: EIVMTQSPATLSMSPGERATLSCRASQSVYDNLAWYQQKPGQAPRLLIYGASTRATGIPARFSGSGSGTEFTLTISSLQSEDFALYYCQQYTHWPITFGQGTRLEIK", "pg/mL", 3830),
    ("fully human TIM-3 antibody 18D2H2 (antibody, human IgG4, V domains shown, also called antibody number 2) VH: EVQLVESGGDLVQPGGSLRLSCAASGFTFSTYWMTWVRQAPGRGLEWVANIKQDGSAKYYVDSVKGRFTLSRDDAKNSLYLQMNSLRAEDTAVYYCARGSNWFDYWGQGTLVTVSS VL: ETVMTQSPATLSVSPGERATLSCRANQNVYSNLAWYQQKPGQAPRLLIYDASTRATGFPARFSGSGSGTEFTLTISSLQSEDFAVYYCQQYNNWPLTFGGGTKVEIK", "pg/mL", 2860),
    ("fully human TIM-3 antibody 134H3G6 (antibody, human IgG4, V domains shown, also called antibody number 3) VH: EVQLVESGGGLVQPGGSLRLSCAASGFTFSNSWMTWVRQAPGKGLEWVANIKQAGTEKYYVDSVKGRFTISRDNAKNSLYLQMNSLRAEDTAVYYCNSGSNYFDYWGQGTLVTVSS VL: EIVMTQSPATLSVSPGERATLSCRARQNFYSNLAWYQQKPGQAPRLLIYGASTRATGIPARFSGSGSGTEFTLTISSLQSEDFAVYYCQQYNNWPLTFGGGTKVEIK", "pg/mL", 3230),
]
